protocol notes: Agonist activity at human PGI2 receptor assessed as inhibition of ADP-induced platelet aggregation
endpoint label: IC50

Requested field: IC50. Item: "CC(C)N(CCCCOCC(=O)NS(C)(=O)=O)c1cnc(-c2ccccc2)c(-c2ccccc2)n1" 6.4 µM
